pIC50: −log10 of the molar value.
Here's a roundup of pIC50 values tested on human PD-L1 (Homo sapiens (Human)), taken from various published works.

Q: Provide one value: measured pIC50 of "COc1nc(OCc2cccc(-c3cccc(COc4ccc(CN5C[C@@H](O)C[C@H]5C(=O)O)c(OC)n4)c3Cl)c2Cl)ccc1CN1CC[C@H](O)C1"
Result: > 8.00

Q: Report measured pIC50; entry is "COc1nc(OCc2cccc(-c3cccc(COc4ccc(CNCCC(N)=O)c(OC)n4)c3C)c2C)ccc1CNCCC(N)=O"
Result: 7.00 to 8.00

Q: Provide one value: measured pIC50 of "COc1nc(-c2cccc(-c3cccc(NC(=O)c4cn(C)c(=O)n(C)c4=O)c3C)c2Cl)ccc1CN[C@@H]1CCC[C@@H]1O"
Result: > 8.00

Q: Return reported pIC50. Input compound: "COc1cc(-c2cccc(-c3cccc(NC(=O)c4cn(C)c(=O)n(C)c4=O)c3Cl)c2Cl)ncc1CN1CC(C(=O)O)C1"
Result: > 8.00

Q: Output pIC50 of COc1nc(OCc2cccc(-c3cccc(COc4ccc(CNC5CNC(=O)C5)c(OC)n4)c3C)c2C)ccc1CNC1CNC(=O)C1 (centres unmarked)
Result: 7.00 to 8.00

State recorded pIC50 for all listed compounds.
1. CCOc1cc(NC2CCc3c(-c4cccc(OCCCN5CCC(F)CC5)c4C)cccc32)c(Cl)cc1CN[C@@H](CO)C(=O)O (some centres unmarked)
2. COc1nc(-c2cccc(-c3cccc(Nc4nc(C)nc5cccnc45)c3C)c2Cl)ccc1CNC(C)C
3. COc1nc(-c2cccc(-c3cccc(Nc4nc(C)nc5cccnc45)c3C)c2Cl)ccc1CN1CC[C@@](C)(C(=O)O)C1
4. COc1cc(-c2cccc(-c3cccc(NC(=O)c4cn(C)c(=O)n(C)c4=O)c3Cl)c2Cl)ncc1CN1CC(C)(C(=O)O)C1
5. COc1nc(-c2cccc(-c3cccc(NC(=O)c4cn(C)c(=O)n(C)c4=O)c3C)c2Cl)ccc1CNCCO
6. COc1nc(OCc2cccc(-c3cccc(COc4ccc(CN5CC(O)(C(=O)O)C5)c(OC)n4)c3C)c2C)ccc1CN1CC(O)(C(=O)O)C1

Result:
1. 6.30 to 8.30
2. > 8.00
3. > 8.00
4. > 8.00
5. > 8.00
6. > 8.00
